# assay_explanation: Stat Signaling Pathway (AID 446);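 also: ME-180 cervical cancer cells given 40 pM IL-6 alongside compound; SIE-controlled beta-lactamase reporter measured as 460/530 nm FRET emission ratio; % is scaled to controls: 0 for no effect and ±100 for the full control effect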
# particulars: ME-180 (cervical carcinoma) SIE beta-lactamase reporter, IL-6 stimulated, 5 h; at 7.69 µM (top of the series) unless noted
Results filed as inconclusive are left out. Active and inactive are the calls of the source. Calls follow the shape of the dose curve; as a rule, active = well fitted curve in either direction with a large enough effect (not every such curve was filed as active); inconclusive = small, poorly fitted or top-dose-only effect, or another doubt; inactive = flat fitted curve, though single readings scatter.
measurement_label: activity, negative = inhibition

1) O=C(O)[C@H]1CC=CC[C@@H]1C(=O)Nc1cccc(O)c1 ... 1.44% (inactive)
2) Cc1cc(O)c(C(C)C)cc1NC(=O)Nc1cccc2ccccc12 ... -19% (inactive)
3) Cc1ccccc1S(=O)(=O)O[C@@H]1NS(=O)(=O)c2ccccc21 ... 0.825% (inactive)
4) CNC/C(Cl)=N/S(=O)(=O)c1ccc(C)cc1 ... 2.28% (inactive)

====

Listed here are molecules together with their documented Potency.
# system_tested: Glucocorticoid receptor (Homo sapiens) (UniProt P04150)
# Sequence (P04150 whole entry, looked up): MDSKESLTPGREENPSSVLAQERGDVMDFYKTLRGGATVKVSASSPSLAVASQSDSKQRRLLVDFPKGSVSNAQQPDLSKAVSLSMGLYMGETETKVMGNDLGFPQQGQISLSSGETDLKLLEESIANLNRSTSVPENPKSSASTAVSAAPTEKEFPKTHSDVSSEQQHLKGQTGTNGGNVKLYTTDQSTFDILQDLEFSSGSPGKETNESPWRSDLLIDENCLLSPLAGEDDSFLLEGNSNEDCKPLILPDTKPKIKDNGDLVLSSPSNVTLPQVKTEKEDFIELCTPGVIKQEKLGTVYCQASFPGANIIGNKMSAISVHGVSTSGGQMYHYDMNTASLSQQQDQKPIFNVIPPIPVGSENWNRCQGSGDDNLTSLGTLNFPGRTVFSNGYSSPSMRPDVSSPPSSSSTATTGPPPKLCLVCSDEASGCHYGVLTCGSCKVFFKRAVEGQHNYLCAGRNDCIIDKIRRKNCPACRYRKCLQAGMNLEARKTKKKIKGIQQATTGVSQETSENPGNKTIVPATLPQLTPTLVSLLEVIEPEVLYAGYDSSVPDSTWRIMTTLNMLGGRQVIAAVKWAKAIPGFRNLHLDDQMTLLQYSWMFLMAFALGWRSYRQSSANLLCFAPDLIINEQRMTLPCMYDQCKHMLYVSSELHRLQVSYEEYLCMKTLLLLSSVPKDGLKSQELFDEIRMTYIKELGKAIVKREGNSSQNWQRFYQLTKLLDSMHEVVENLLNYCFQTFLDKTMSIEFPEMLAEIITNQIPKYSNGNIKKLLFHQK
# assay_explanation: GR-GFP Redistribution (AID 450); also: potency is read from the fitted curve at half-maximal effect
# particulars: U2OS GR-GFP nuclear translocation, laser cytometry, 2 h
The source made the active and inactive calls.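 Rule for the calls: active = compounds whose dose series gives a full or clear partial fitted curve of increased nuclear translocation; inconclusive = weak partial curve or effect only at the top dose; inactive = no dose-dependent translocation response.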
measurement_label: Potency

1. O=C(O)CCCc1ccc2ccccc2c1 ... > 46 µM (inactive)
2. Cc1ccc(-c2nnc(-c3ccc4ccccc4c3)o2)cc1 ... > 46 µM (inactive)
3. N#CCCn1c(=O)c(-c2ccccc2)nc2cnc(Oc3ccccc3)nc21 ... > 9.22 µM (inactive)
4. FC(F)(F)c1nc2nc(Cl)c(Cl)nc2n1CCCN1CCOCC1 ... > 46 µM (inactive)
5. CN(C)Cc1cc(C(=O)O)cc(CN(C)C)c1O ... > 46 µM (inactive)
6. O=S(=O)(c1ccc2ccccc2c1)N1CCN(S(=O)(=O)c2ccc3ccccc3c2)CC1 ... > 46 µM (inactive)
7. O=S(O)O.O=S(O)O.[Co].[NH2-].[NH2-].[NH2-].[NH2-] ... > 46 µM (inactive)
8. c1ccc2c(c1)-c1ccccc1C2N1CC2CCC(CC2)C1 ... > 46 µM (inactive)
9. CN(C(=O)c1ccncc1)c1ccccc1 ... > 46 µM (inactive)
10. NC(N)=NC(N)=Nc1ccc(C(=O)O)cc1 ... > 46 µM (inactive)
11. CSc1ccc(NC(=O)Nc2cc(C)ccn2)cc1 ... > 46 µM (inactive)
12. O=C(O)[C@H]1[C@H](C(=O)O)[C@H](C(=O)O)C[C@@H]1C(=O)O ... > 46 µM (inactive)

====

# assay_explanation: NFAT Signaling Pathway (AID 444);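 also: carbachol stimulus at about its EC50 of 1 µM final; % is scaled to controls: 0 for no effect and ±100 for the full control effect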
# particulars: Jurkat NFAT-bla M1, carbachol, beta-lactamase ratio, 5 h; at 7.69 µM (top of the series) unless noted
Inconclusive results are not listed. Active and inactive are the calls of the source. Calls come from the whole dose curve; as a rule, active = well fitted curve in either direction with a large enough effect (not every such curve was filed as active); inconclusive = small, poorly fitted or top-dose-only effect, or another doubt; inactive = flat fitted curve, though single readings scatter.
measurement_label: activity change, negative = inhibition

1. CC1(C)CC(Nc2ccc(Nc3ccccc3)cc2)CC(C)(C)N1 ... 6.65% (inactive)
2. CC[C@](N)(C(=O)O)C(C)C ... -9.09% (inactive)
3. O=C(O)[C@@H]1[C@@H](C(=O)NCc2ccncc2)[C@@H]2C=C[C@@H]1O2 ... 8.48% (inactive)
4. CC(C)(C)c1ccc(CN2CCN([C@H](c3ccccc3)c3ccc(Cl)cc3)CC2)cc1 ... -9.36% (inactive)
5. CC1(CC(=O)O)O[C@H]2CCCCC[C@H]2O1 (stereo not given in full) (tested in a mixture with another compound) ... -4.93% (inactive)
6. CC(C)(C)c1onc(OCP(=O)(O)O)c1C[C@@H](N)C(=O)O ... 8.86% [at 38 µM] (inactive)
7. S=C(Nc1ccc2cn[nH]c2c1)Nc1ccc2cn[nH]c2c1 ... 19.4% (inactive)
8. Nc1nc(SCc2ccccc2[N+](=O)[O-])c2[nH]cnc2n1 ... 14.4% (inactive)
9. NS(=O)(=O)c1ccc(NC(=O)Nc2ccccc2F)cc1 ... 20.2% (inactive)
10. CN(Cc1cc(C(C)(C)C)cc(Br)c1O)Cc1cc(C(C)(C)C)cc(Br)c1O ... 11.8% (inactive)
